The reported measurements were obtained from the kinase profiling compilation of Christmann-Franck et al. (2016).

# Test Target: PRKD2 (human)
# Test Protocol: KINOMEscan competition binding
# Experimental Context: compound 10.0 µM

Smiles Repr | Test Target | kinase still bound, per cent of control [%]
CCN1CCN(C(=O)Cc2ccc(Nc3ncc(F)c(Nc4ccc(C(=O)Nc5ccccc5Cl)cc4)n3)cc2)CC1 | PRKD2 (human) | 100
O=C(Nc1cccc(Nc2ncc(Br)c(NCCc3cnc[nH]3)n2)c1)N1CCCC1 | PRKD2 (human) | 1.7
COc1cc2ncnc(-n3nc(-c4ccccn4)nc3N)c2cc1OC | PRKD2 (human) | 65

###

# Test system: EGFR (human), P00533 [752-759 del]
# Sequence (P00533 whole entry, looked up, stated change not applied): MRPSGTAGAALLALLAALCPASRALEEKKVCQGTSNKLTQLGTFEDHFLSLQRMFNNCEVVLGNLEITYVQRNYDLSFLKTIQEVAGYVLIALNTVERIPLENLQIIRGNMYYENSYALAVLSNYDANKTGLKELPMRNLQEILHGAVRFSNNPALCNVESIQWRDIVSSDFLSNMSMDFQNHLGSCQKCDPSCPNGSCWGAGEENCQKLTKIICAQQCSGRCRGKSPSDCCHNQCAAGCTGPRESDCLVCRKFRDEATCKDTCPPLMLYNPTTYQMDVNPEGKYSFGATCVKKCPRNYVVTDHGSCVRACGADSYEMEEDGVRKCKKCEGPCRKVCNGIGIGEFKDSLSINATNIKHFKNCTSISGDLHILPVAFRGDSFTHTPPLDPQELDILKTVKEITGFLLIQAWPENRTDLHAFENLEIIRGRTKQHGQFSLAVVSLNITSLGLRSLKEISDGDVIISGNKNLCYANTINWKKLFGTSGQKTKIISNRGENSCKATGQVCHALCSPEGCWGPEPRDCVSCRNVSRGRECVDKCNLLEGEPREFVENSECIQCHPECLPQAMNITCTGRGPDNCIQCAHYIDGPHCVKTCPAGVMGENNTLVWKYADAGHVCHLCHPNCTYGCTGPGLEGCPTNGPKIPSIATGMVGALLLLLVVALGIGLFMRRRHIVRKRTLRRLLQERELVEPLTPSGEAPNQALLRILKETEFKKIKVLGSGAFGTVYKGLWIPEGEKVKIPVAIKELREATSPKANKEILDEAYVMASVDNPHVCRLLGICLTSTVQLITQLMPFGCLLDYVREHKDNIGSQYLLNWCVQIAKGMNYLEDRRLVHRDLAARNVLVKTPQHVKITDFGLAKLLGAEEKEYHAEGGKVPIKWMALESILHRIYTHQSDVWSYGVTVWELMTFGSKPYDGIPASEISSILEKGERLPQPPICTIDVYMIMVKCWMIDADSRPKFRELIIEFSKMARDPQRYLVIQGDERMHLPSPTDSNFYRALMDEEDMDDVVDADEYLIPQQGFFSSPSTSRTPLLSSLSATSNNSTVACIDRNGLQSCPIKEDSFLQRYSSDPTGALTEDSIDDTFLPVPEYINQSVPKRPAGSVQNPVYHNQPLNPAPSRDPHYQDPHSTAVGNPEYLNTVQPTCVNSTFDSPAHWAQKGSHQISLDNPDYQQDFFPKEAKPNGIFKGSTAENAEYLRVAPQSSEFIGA
# Test Protocol: KINOMEscan competition binding
# Experimental Context: compound 10.0 µM

Smiles Repr | Unit String | kinase still bound, per cent of control
O=C(Nc1cccc(Nc2ncc(Br)c(NCCc3cnc[nH]3)n2)c1)N1CCCC1 | % | 66
COc1cc(N2CCN(C)CC2)ccc1Nc1nc(N)c(C(=O)c2c(Cl)cccc2Cl)s1 | % | 89
CCCS(=O)(=O)Nc1ccc(F)c(C(=O)c2c[nH]c3ncc(Cl)cc23)c1F | % | 73
OCCCNc1cc(-c2ccnc(Nc3cccc(Cl)c3)n2)ccn1 | % | 100
O=c1cc(N2CCOCC2)oc2c(-c3cccc4c3sc3ccccc34)cccc12 | % | 100
COc1cc(N2CCN(C)CC2)ccc1Nc1ncc2c(n1)N(C)c1ccccc1C(=O)N2C | % | 100
COc1cc2ncnc(-n3nc(-c4ccccn4)nc3N)c2cc1OC | % | 58
Cn1c(=O)n(-c2ccc(C(C)(C)C#N)cc2)c2c3cc(-c4cnc5ccccc5c4)ccc3ncc21 | % | 100
COc1cc(N2CCC(C(N)=O)CC2)ccc1Nc1nc(N)c(Cl)c(Nc2ccccc2S(=O)(=O)C(C)C)n1 | % | 1.2

###

# Test Target: ANKK1 (human) (UniProt Q8NFD2)
# Sequence (Q8NFD2 whole entry, looked up): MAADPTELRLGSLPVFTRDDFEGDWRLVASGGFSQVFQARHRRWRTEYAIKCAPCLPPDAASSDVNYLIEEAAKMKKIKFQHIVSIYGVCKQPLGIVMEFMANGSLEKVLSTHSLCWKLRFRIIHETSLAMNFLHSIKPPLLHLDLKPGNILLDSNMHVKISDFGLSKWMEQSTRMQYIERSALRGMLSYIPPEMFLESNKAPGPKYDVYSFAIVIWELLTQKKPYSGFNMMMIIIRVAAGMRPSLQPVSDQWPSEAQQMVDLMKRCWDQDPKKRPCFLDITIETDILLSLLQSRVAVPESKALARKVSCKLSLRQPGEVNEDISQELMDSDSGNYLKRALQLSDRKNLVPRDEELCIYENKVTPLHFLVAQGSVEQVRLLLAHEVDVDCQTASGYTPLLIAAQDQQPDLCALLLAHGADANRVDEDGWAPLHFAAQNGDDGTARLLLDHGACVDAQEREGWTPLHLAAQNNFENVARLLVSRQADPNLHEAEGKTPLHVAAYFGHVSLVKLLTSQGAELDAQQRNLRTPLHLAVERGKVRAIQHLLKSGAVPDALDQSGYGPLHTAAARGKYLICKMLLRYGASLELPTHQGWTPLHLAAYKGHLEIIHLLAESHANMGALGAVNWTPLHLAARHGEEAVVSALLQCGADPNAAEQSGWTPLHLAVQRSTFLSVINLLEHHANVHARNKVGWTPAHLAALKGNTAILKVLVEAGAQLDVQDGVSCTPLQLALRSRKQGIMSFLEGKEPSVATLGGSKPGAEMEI
# Test Protocol: KINOMEscan competition binding
# Experimental Context: compound 10.0 µM
Assign labels as follows, please: condition met for kinase still bound, per cent of control below 80%; condition not met for kinase still bound, per cent of control equal to or exceeding 80%.

Smiles Repr | Label
COCC(=O)NC/C=C/c1ccc2ncnc(Nc3ccc(Oc4ccc(C)nc4)c(C)c3)c2c1 | condition met
O=c1cc(N2CCOCC2)oc2c(-c3cccc4c3sc3ccccc34)cccc12 | condition not met
Cc1n[nH]c2ccc(-c3cncc(OC[C@@H](N)Cc4c[nH]c5ccccc45)c3)cc12 | condition not met
O=C(Nc1cccc(Nc2ncc(Br)c(NCCc3cnc[nH]3)n2)c1)N1CCCC1 | condition met
C[C@@H](Oc1cc(-c2cnn(C3CCNCC3)c2)cnc1N)c1c(Cl)ccc(F)c1Cl | condition met
CNC(=O)c1cc(Oc2ccc(NC(=O)Nc3ccc(Cl)c(C(F)(F)F)c3)cc2)ccn1 | condition not met
CCN(CC)CCCCNc1ncc2c(n1)N(C)C(=O)N(c1c(Cl)c(OC)cc(OC)c1Cl)C2 | condition not met
CS(=O)(=O)N1CCN(Cc2cc3nc(-c4cccc5[nH]ncc45)nc(N4CCOCC4)c3s2)CC1 | condition not met
CCN1CCN(C(=O)Cc2ccc(Nc3ncc(F)c(Nc4ccc(C(=O)Nc5ccccc5Cl)cc4)n3)cc2)CC1 | condition met
COc1ccc(N(C(=O)Oc2c(C)cccc2C)c2ccnc(Nc3ccc(N4CCN(C)CC4)cc3)n2)c(OC)c1 | condition not met
CCN(CC)CCCCNc1ncc2cc(-c3cc(OC)cc(OC)c3)c(NC(=O)NC(C)(C)C)nc2n1 | condition not met
COc1cc2ncnc(-n3nc(-c4ccccn4)nc3N)c2cc1OC | condition met
O=C1NC(=O)/C(=C/c2ccc3nccc(-c4ccncc4)c3c2)S1 | condition met
CN(C)C/C=C/C(=O)Nc1ccc(C(=O)Nc2cccc(Nc3nccc(-c4cccnc4)n3)c2)cc1 | condition met
C=CC(=O)Nc1ccc(CN(C(=O)Nc2c(Cl)c(OC)cc(OC)c2Cl)c2cc(Nc3ccc(N4CCN(C)CC4)cc3)ncn2)cc1 | condition not met
COc1cc(C(=O)N2CCC(N3CCN(C)CC3)CC2)ccc1Nc1ncc2c(n1)N(C)c1ccccc1C(=O)N2C | condition not met
N#CCNC(=O)c1ccc(-c2ccnc(Nc3ccc(N4CCOCC4)cc3)n2)cc1 | condition not met

###

# Test Target: UniProt:P36507
# Sequence (P36507 whole entry, looked up): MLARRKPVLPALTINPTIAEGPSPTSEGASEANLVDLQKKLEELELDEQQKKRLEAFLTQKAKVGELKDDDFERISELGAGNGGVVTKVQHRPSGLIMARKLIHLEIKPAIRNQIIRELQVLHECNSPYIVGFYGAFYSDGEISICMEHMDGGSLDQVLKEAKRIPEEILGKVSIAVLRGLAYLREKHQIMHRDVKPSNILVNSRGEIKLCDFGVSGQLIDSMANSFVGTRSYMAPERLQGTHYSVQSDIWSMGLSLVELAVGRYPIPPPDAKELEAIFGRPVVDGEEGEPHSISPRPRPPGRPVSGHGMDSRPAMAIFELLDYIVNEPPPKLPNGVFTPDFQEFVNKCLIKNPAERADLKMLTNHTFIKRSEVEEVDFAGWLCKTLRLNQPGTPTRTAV
# Test Protocol: KINOMEscan competition binding
# Experimental Context: compound 10.0 µM

Smiles Repr | kinase still bound, per cent of control
Cc1n[nH]c2ccc(-c3cncc(OC[C@@H](N)Cc4c[nH]c5ccccc45)c3)cc12 | 100%
CCN1CCN(C(=O)Cc2ccc(Nc3ncc(F)c(Nc4ccc(C(=O)Nc5ccccc5Cl)cc4)n3)cc2)CC1 | 57%
COc1ccc(N(C(=O)Oc2c(C)cccc2C)c2ccnc(Nc3ccc(N4CCN(C)CC4)cc3)n2)c(OC)c1 | 46%
CNC(=O)c1cc(Oc2ccc(NC(=O)Nc3ccc(Cl)c(C(F)(F)F)c3)cc2)ccn1 | 86%

###

Measured kinase still bound, per cent of control values are reported for all entries that follow.
# Test Target: MELK (human) (UniProt Q14680)
# Sequence (Q14680 whole entry, looked up): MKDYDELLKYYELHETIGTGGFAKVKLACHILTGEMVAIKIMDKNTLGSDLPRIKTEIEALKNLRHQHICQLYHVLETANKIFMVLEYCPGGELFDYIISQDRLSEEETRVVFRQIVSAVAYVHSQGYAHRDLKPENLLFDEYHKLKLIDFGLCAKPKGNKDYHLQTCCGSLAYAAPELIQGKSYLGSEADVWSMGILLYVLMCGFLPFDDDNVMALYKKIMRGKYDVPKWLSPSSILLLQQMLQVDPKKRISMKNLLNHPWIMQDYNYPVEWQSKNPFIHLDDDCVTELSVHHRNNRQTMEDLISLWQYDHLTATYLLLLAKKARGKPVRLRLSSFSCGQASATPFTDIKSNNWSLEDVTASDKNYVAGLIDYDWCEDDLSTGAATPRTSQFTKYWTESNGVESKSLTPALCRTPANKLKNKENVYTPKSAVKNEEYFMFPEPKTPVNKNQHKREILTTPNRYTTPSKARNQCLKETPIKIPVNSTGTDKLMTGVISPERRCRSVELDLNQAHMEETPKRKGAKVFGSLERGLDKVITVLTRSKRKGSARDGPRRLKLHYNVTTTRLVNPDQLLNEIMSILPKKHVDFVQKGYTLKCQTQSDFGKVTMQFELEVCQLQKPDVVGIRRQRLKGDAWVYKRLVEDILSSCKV
# Test Protocol: KINOMEscan competition binding
# Experimental Context: compound 10.0 µM

Smiles Repr | Unit String | kinase still bound, per cent of control
O=C1NC(=O)/C(=C/c2ccc3nccc(-c4ccncc4)c3c2)S1 | % | 8.6
COc1cc(N2CCN(C)CC2)ccc1Nc1ncc2c(n1)N(C)c1ccccc1C(=O)N2C | % | 100
COc1cc(C(=O)N2CCC(N3CCN(C)CC3)CC2)ccc1Nc1ncc2c(n1)N(C)c1ccccc1C(=O)N2C | % | 100

###

# Test Target: PIP5K1C (human)
# Test Protocol: KINOMEscan competition binding
# Experimental Context: compound 10.0 µM
Assign labels as follows, please: yes for kinase still bound, per cent of control below 30%; no for kinase still bound, per cent of control equal to or exceeding 30%.

Smiles Repr | Label
O=C(Nc1cccc(Nc2ncc(Br)c(NCCc3cnc[nH]3)n2)c1)N1CCCC1 | yes
C[C@@H](Oc1cc(-c2cnn(C3CCNCC3)c2)cnc1N)c1c(Cl)ccc(F)c1Cl | no
NC(=O)Nc1cc(-c2cccc(F)c2)sc1C(=O)N[C@@H]1CCCNC1 | yes
O=C1NC(=O)/C(=C/c2ccc3nccc(-c4ccncc4)c3c2)S1 | yes
CCN1CCN(C(=O)Cc2ccc(Nc3ncc(F)c(Nc4ccc(C(=O)Nc5ccccc5Cl)cc4)n3)cc2)CC1 | no
C=CC(=O)Nc1cc(-n2c(=O)ccc3cnc4ccc(-c5cn[nH]c5)cc4c32)ccc1C | no
COc1cc(C(=O)N2CCC(N3CCN(C)CC3)CC2)ccc1Nc1ncc2c(n1)N(C)c1ccccc1C(=O)N2C | no
COc1cc2ncn(-c3cc(OCc4ccccc4C(F)(F)F)c(C(N)=O)s3)c2cc1OC | yes
CN(C)C/C=C/C(=O)Nc1ccc(C(=O)Nc2cccc(Nc3nccc(-c4cccnc4)n3)c2)cc1 | yes

###

# Test Target: DMPK (human)
# Test Protocol: KINOMEscan competition binding
# Experimental Context: compound 10.0 µM
Assign labels as follows, please: met for kinase still bound, per cent of control below 60%; not met for kinase still bound, per cent of control equal to or exceeding 60%.

Smiles Repr | Label
CNC(=O)c1ccc(Nc2cc(Nc3ccccc3S(=O)(=O)C(C)C)c3cc[nH]c3n2)nc1 | met
CCN1CCN(C(=O)Cc2ccc(Nc3ncc(F)c(Nc4ccc(C(=O)Nc5ccccc5Cl)cc4)n3)cc2)CC1 | not met
COc1cc(N2CCN(C)CC2)ccc1Nc1ncc2c(n1)N(C)c1ccccc1C(=O)N2C | not met
CS(=O)(=O)N1CCN(Cc2cc3nc(-c4cccc5[nH]ncc45)nc(N4CCOCC4)c3s2)CC1 | not met
C=CC(=O)Nc1ccc(CN(C(=O)Nc2c(Cl)c(OC)cc(OC)c2Cl)c2cc(Nc3ccc(N4CCN(C)CC4)cc3)ncn2)cc1 | not met
NC(=O)Nc1cc(-c2cccc(F)c2)sc1C(=O)N[C@@H]1CCCNC1 | met
CN(C)C/C=C/C(=O)Nc1ccc(C(=O)Nc2cccc(Nc3nccc(-c4cccnc4)n3)c2)cc1 | not met
Cc1n[nH]c2ccc(-c3cncc(OC[C@@H](N)Cc4c[nH]c5ccccc45)c3)cc12 | met

###

# Test Target: TSSK1B (human)
# Test Protocol: KINOMEscan competition binding
# Experimental Context: compound 10.0 µM

Smiles Repr | kinase still bound, per cent of control / %
CS(=O)(=O)N1CCN(Cc2cc3nc(-c4cccc5[nH]ncc45)nc(N4CCOCC4)c3s2)CC1 | 100
Cc1n[nH]c2ccc(-c3cncc(OC[C@@H](N)Cc4c[nH]c5ccccc45)c3)cc12 | 100
C=CC(=O)Nc1cc(-n2c(=O)ccc3cnc4ccc(-c5cn[nH]c5)cc4c32)ccc1C | 87
N#CCNC(=O)c1ccc(-c2ccnc(Nc3ccc(N4CCOCC4)cc3)n2)cc1 | 100
CCN1CCN(C(=O)Cc2ccc(Nc3ncc(F)c(Nc4ccc(C(=O)Nc5ccccc5Cl)cc4)n3)cc2)CC1 | 100
COc1cc2ncnc(-n3nc(-c4ccccn4)nc3N)c2cc1OC | 60
CNC(=O)c1cc(Oc2ccc(NC(=O)Nc3ccc(Cl)c(C(F)(F)F)c3)cc2)ccn1 | 78
CCN(CC)CCCCNc1ncc2c(n1)N(C)C(=O)N(c1c(Cl)c(OC)cc(OC)c1Cl)C2 | 100
COCC(=O)NC/C=C/c1ccc2ncnc(Nc3ccc(Oc4ccc(C)nc4)c(C)c3)c2c1 | 100
NC(=O)Nc1cc(-c2cccc(F)c2)sc1C(=O)N[C@@H]1CCCNC1 | 2.6
CN(C)C/C=C/C(=O)Nc1ccc(C(=O)Nc2cccc(Nc3nccc(-c4cccnc4)n3)c2)cc1 | 100
O=C(Nc1cccc(Nc2ncc(Br)c(NCCc3cnc[nH]3)n2)c1)N1CCCC1 | 48
C[C@@H](Oc1cc(-c2cnn(C3CCNCC3)c2)cnc1N)c1c(Cl)ccc(F)c1Cl | 40
CCN(CC)CCCCNc1ncc2cc(-c3cc(OC)cc(OC)c3)c(NC(=O)NC(C)(C)C)nc2n1 | 100
C=CC(=O)Nc1ccc(CN(C(=O)Nc2c(Cl)c(OC)cc(OC)c2Cl)c2cc(Nc3ccc(N4CCN(C)CC4)cc3)ncn2)cc1 | 100
O=C1NC(=O)/C(=C/c2ccc3nccc(-c4ccncc4)c3c2)S1 | 2.2
COc1cc(C(=O)N2CCC(N3CCN(C)CC3)CC2)ccc1Nc1ncc2c(n1)N(C)c1ccccc1C(=O)N2C | 60
COc1ccc(N(C(=O)Oc2c(C)cccc2C)c2ccnc(Nc3ccc(N4CCN(C)CC4)cc3)n2)c(OC)c1 | 87
CNC(=O)c1ccc(Nc2cc(Nc3ccccc3S(=O)(=O)C(C)C)c3cc[nH]c3n2)nc1 | 100
O=c1cc(N2CCOCC2)oc2c(-c3cccc4c3sc3ccccc34)cccc12 | 83
COc1cc(N2CCN(C)CC2)ccc1Nc1ncc2c(n1)N(C)c1ccccc1C(=O)N2C | 100
